Assay: activity coefficient (dimensionless); of the first substance listed, at infinite dilution; xn = mol fraction of the nth substance listed
Settings: 323.2 K; 101.3 kPa; Liquid; Chromatography; x1 = 0
Endpoint: activity coefficient
Just the number, please, no unit after it.

Example entries and their recorded answers appear below.
Cc1ccccc1C [1,2-dimethylbenzene] + CCn1cc[n+](C)c1.N#C[B-](C#N)(C#N)C#N; 2.58
Cc1cccc(C)c1 [1,3-dimethylbenzene] + CCn1cc[n+](C)c1.N#C[B-](C#N)(C#N)C#N; 3.03
c1ccccc1 [benzene] + CCn1cc[n+](C)c1.N#C[B-](C#N)(C#N)C#N; 1.34

Moving on to the next compound.
Output activity coefficient of Cc1ccc(C)cc1 [1,4-dimethylbenzene] + CCn1cc[n+](C)c1.N#C[B-](C#N)(C#N)C#N 2.87

Reference source for all entries: the NIST ThermoML archive (doi:10.1016/j.jct.2010.02.006)
